# TARGET OF ASSAY: Kir4.1 (Homo sapiens, UniProt P78508)
# Construct: host or cells: CHO-K1
# Sequence (P78508 whole entry): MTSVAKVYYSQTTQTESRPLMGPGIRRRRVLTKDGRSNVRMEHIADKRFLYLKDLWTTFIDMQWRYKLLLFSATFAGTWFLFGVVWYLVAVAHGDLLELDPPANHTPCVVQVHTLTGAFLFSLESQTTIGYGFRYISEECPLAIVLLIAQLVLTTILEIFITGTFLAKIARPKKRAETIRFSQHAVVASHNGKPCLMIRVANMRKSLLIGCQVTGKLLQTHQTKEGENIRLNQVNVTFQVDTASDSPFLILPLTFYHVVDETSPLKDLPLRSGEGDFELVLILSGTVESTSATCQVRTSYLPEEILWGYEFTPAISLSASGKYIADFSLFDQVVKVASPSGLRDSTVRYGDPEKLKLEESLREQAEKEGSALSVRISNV
# ASSAY TEXT: Whole-cell patch clamp, Kir4.1 currents in transfected CHO-K1 cells
# Type: cell-based
# APPLIED CONDITIONS: CHO-K1, 1 μM; -120 mV; read-out: Kir4.1 Inhibition ± SD (%) at 1 μM, -120 mV
If the reported inhibition at 1 µM equals or exceeds 10%, assign Fulfilled. If not, assign Not fulfilled.

**Q:** Is inhibition at 1 µM at least 10%? Consider OC(CNc1nccc(Nc2ccc3oc4ccccc4c3c2)n1)CN1CCOCC1 (stereo not drawn)
**A:** Not fulfilled

**Q:** Is inhibition at 1 µM at least 10%? Consider c1ccc2c(c1)oc1ccc(Nc3ccnc(NCCCN4CCCCCC4)n3)cc12
**A:** Fulfilled

**Q:** Is inhibition at 1 µM at least 10%? Consider c1ccc2c(c1)oc1ccc(Nc3cncc(NCCCN4CCOCC4)n3)cc12
**A:** Fulfilled

**Q:** Is inhibition at 1 µM at least 10%? Consider CC(C)(C)OC(=O)NCCCNc1nccc(Nc2ccc3oc4ccccc4c3c2)n1
**A:** Not fulfilled

**Q:** Is inhibition at 1 µM at least 10%? Consider c1ccc2c(c1)oc1ccc(Nc3ccnc(NCCCN4CCOCC4)n3)cc12
**A:** Fulfilled

**Q:** Is inhibition at 1 µM at least 10%? Consider C1=Nc2ccccc2Oc2ccc(Nc3ccnc(NCCCN4CCOCC4)n3)cc21
**A:** Fulfilled

**Q:** Is inhibition at 1 µM at least 10%? Consider O=C(NCCNc1nccc(Nc2ccc3oc4ccccc4c3c2)n1)N1CCOCC1
**A:** Not fulfilled

**Q:** Is inhibition at 1 µM at least 10%? Consider O=C1c2ccccc2-c2cc(Nc3ccnc(NCCCN4CCOCC4)n3)ccc21
**A:** Fulfilled

**Q:** Is inhibition at 1 µM at least 10%? Consider c1ccc2c(c1)oc1ccc(Nc3ccnc(NCCCN4CCCOCC4)n3)cc12
**A:** Fulfilled

###

# TARGET OF ASSAY: Kir4.1 (Homo sapiens, UniProt P78508)
# Construct: host or cells: CHO-K1
# ASSAY TEXT: Whole-cell patch clamp, Kir4.1 currents in transfected CHO-K1 cells
# Format: cell-based
# APPLIED CONDITIONS: CHO-K1, 1 μM; +50 mV; read-out: Kir4.1 Inhibition ± SD (%) at 1 μM, +50 mV
MEASURE NAME: inhibition at 1 µM
# number then unit; no other words

Note to self: inhibition at 1 µM recorded for C[C@@H]1CN(CCCNc2nccc(Nc3ccc4oc5ccccc5c4c3)n2)C[C@H](C)O1 was -0.93%

Note to self: inhibition at 1 µM recorded for O=C1c2ccccc2-c2cc(Nc3ccnc(NCCCN4CCOCC4)n3)ccc21 was 28.8%

Note to self: inhibition at 1 µM recorded for C1=Nc2ccccc2Oc2ccc(Nc3ccnc(NCCCN4CCOCC4)n3)cc21 was 60.4%

Note to self: inhibition at 1 µM recorded for c1ccc2c(c1)oc1ccc(Nc3ccnc(NCCCN4CCN(C5COC5)CC4)n3)cc12 was 21.9%

Note to self: inhibition at 1 µM recorded for CC(CNc1nccc(Nc2ccc3oc4ccccc4c3c2)n1)CN1CCOCC1 (stereo not drawn) was 4.34%

Note to self: inhibition at 1 µM recorded for CC1CC(C)CN(CCCNc2nccc(Nc3ccc4oc5ccccc5c4c3)n2)C1 (stereo not drawn) was 80.4%

Note to self: inhibition at 1 µM recorded for c1ccc2nc3ccc(Nc4ccnc(NCCCN5CCOCC5)n4)cc3cc2c1 was -0.09%

Note to self: inhibition at 1 µM recorded for CC(C)(C)OC(=O)NCCCNc1nccc(Nc2ccc3oc4ccccc4c3c2)n1 was 12.5%

Note to self: inhibition at 1 µM recorded for O=C(NCCCNc1nccc(Nc2ccc3oc4ccccc4c3c2)n1)N1CCOCC1 was 4.09%
